# Test system: LOX IMVI melanoma
# assay-name: NCI tumour cell line growth inhibition, 48 h
The threshold is inclusive: TGI of exactly 20 µM counts as TRUE; values below receive FALSE.

Inquiry: Reported TGI at or above 20 µM? COc1cc(C)c(Cl)cc1C1=NN(c2ccc(S(N)(=O)=O)cc2)C(/C=C/c2ccccc2)C1 (stereo not given)
Reply text: FALSE

Inquiry: Textbook exercise: given the entry CC(C)(C)c1nn(-c2ccccc2)c2c1C(=O)CSC(c1ccccc1Cl)N2 (stereo not given) , state whether its TGI is greater than or equal to 20 µM.
Reply text: FALSE

Inquiry: Given `N#CN=C(N)NC(=O)/C=C/C=C/c1ccc(Cl)cc1` , state whether its TGI is at least 20 µM.
Reply text: TRUE

Inquiry: Is the recorded value of TGI equal to or greater than 20 µM for this compound? `c1ccc2[nH]c(-c3ccc(NN=Nc4ccncc4)cc3)nc2c1`
Reply text: TRUE

Inquiry: Has COC1CC2CCC(C)C(O)(O2)C(=O)C(=O)N2CCCCC2C(=O)OC(C(C)CC2CCC(O)C(OC)C2)CC(=O)C(C)C=C(C)C(O)C(OC)C(=O)C(C)CC(C)/C=C/C=C/C=C1C (stereo not given) a recorded TGI greater than or equal to 20 µM?
Reply text: FALSE

Inquiry: API: above_or_equal(metric=TGI, cutoff=20 µM) for item N#CC(C(=O)CCC(=O)C(C#N)c1ccccc1)c1ccccc1 (stereo not given)
Reply text: TRUE

Inquiry: Answer whether TGI of CC(C)CC1C(=O)NCCC(NC(=O)C(N)Cc2ccc(O)cc2)C(=O)NC(Cc2ccccc2)C(=O)NC(Cc2ccccc2)NC1=O (stereo not given) is greater than or equal to 20 µM.
Reply text: TRUE

Inquiry: Check the entry O=c1ccn(C2OC(CO/N=C/c3ccc(O)c(O)c3O)C(O)C2O)c(=O)[nH]1 (stereo not given) : does TGI equal or exceed 20 µM?
Reply text: TRUE

Inquiry: Could you please find out whether `O=C(CN1CCN(CCCOc2c(-c3ccccc3)oc3ccccc3c2=O)CC1)Nc1ccc(Cl)cc1C(=O)c1ccccc1Cl` has TGI that meets 20 µM or exceeds it?
Reply text: FALSE

Inquiry: Decide: is the reported value of TGI for `CC1(C)N=C(N)N=C(N)N1c1ccc(OCCCCOc2ccc(S(=O)(=O)F)cc2)c(Cl)c1` equal to or greater than 20 µM?
Reply text: FALSE

Inquiry: Is TGI at least 20 µM? Consider O=C(CC(C(=O)c1ccco1)c1ccsc1)c1ccco1 (stereo not given)
Reply text: TRUE

Inquiry: Given the entry `Nc1c(Br)cc(Br)c2c1[nH]c(=O)c1ccccc12` , answer whether its TGI meets or surpasses 20 µM.
Reply text: TRUE

Inquiry: Quick check, TGI >= 20 µM? `O=C1C=C(Sc2ccccc2)c2nccc3c2c1nc1ccccc13`
Reply text: TRUE

Inquiry: Record `CC[C@H](Nc1nc(NCc2cnc(C)cc2C)c2ncn(C(C)C)c2n1)[C@@H](C)O` ; criterion: TGI no lower than 20 µM. Met?
Reply text: TRUE

Inquiry: Quick check: does `Cc1ccc(C)n1-n1c(Cc2ccccc2)n[nH]c1=O` have TGI greater than or equal to 20 µM?
Reply text: TRUE

Inquiry: Check this compound for TGI at or above 20 µM: O=S1CCS(=O)CCS(=O)CC1 (stereo not given)
Reply text: TRUE

Inquiry: Dear colleague, could you confirm whether `CN(C)c1ccc(/C=c2/c3ccccc3n3nc4ccccc4c23)cc1` has TGI at or above 20 µM?
Reply text: TRUE

Inquiry: Evaluate O=C1c2ccccc2NC(=O)C2C1C(c1ccccc1)CC2(O)c1ccccc1 (stereo not given) : TGI at minimum 20 µM?
Reply text: TRUE

Inquiry: Determine whether measured TGI meets or exceeds 20 µM for O=C(CC1(O)C(=O)Nc2c(Cl)ccc(Cl)c21)c1ccc2ccccc2c1 (stereo not given)
Reply text: TRUE

* * *

Please go through the items and note down their TGI.
# Test system: HOP-62 NSCLC
# assay-name: NCI tumour cell line growth inhibition, 48 h

Inquiry: Using the record for `Cn1c(/C=C(\C#N)c2ccccc2)nc2c(N3CCOCC3)nc(Cl)nc21` , state its measured TGI.
Reply text: 3.51 µM

Inquiry: Determine from records and report TGI for CC(OC(C)(C)C)[C@H](NC(=O)OC(C)(C)C)C(=O)O (stereo partly specified)
Reply text: > 100 µM

Inquiry: Consider the molecule `O=C1C(Cl)=C(Nc2cccc(Cl)c2)C(=O)N1Cc1ccccc1Cl` and give its recorded TGI.
Reply text: 37.9 µM

Inquiry: Please report TGI for the following molecule: O=[N+]([O-])c1nccn1CC(O)CN1CC1 (stereo unspecified)
Reply text: > 100 µM

Inquiry: Could you please provide reported TGI for `O=c1cc2ccccc2nn1Cc1cccc(Cl)c1` ? Thanks!
Reply text: > 100 µM

Inquiry: Quickly give me recorded TGI for `Nc1ccc2nc(Nc3ccc(F)cc3)cnc2c1`
Reply text: > 100 µM

* * *

I'd be grateful if you could share measured TGI for these entries.
# System: UACC-257 melanoma
# assay-name: NCI tumour cell line growth inhibition, 48 h
Report the figure in µM without appending any unit label.

Inquiry: Give the reported value of TGI for this record: CC(=O)OC[C@]1(O)CC[C@@]23CC1C[C@@H]2CCC1C(C)(C)CCC[C@@]13C (stereo partly drawn)
Reply text: 29.4

Inquiry: # return recorded TGI for input `Cc1c(-c2c(-c3ccc(F)o3)sc3ncnc(O[C@H](Cc4ccccc4OCc4ccnn4CC(F)(F)F)C(=O)O)c23)ccc(OCCN2CCN(C)CC2)c1Cl`
Reply text: 12.9

Inquiry: Look up and report measured TGI for this entry: `O=C1C(Cl)=C(Nc2cccc(Cl)c2)C(=O)N1Cc1ccccc1Cl`
Reply text: 30.9

Inquiry: Identify TGI associated with the molecule `CC(=O)O[C@H]1C(=O)[C@@]2(C)[C@H]([C@H](OC(=O)c3cccc(C(F)(F)F)c3)[C@]3(O)C[C@H](OC(=O)[C@H](O)[C@@H](NC(=O)c4ccccc4)c4ccccc4)C(C)=C1C3(C)C)[C@]1(OC(C)=O)CO[C@@H]1C[C@@H]2O`
Reply text: 8.27

* * *

# System: KM12 colon
# assay-name: NCI tumour cell line growth inhibition, 48 h
measured-quantity: GI50

Inquiry: Return GI50 for the following molecule: `COc1cc2cc(Oc3ccc(NC(=O)Nc4cccc(C(F)(F)F)c4)cc3)c(C)nc2cc1OC`
Reply text: 1420 nM

Inquiry: Tell me GI50 reported for `CCOc1ccc(-c2nonc2NC(=O)c2cccc(C)c2)cc1OCC`
Reply text: > 100000 nM

Inquiry: Give GI50 for the following molecule: CC(=O)[CH-]C(=O)c1ccccc1.CC(=O)[CH-]C(=O)c1ccccc1.CC(C)CCCC(C)[C@H]1CCC2[C@@H]3CC=C4C[C@@H]([O-])CC[C@]4(C)C3CC[C@@]21C.CC[O-].[Ti+4] (some centres undefined)
Reply text: 39600 nM

Inquiry: Read the entry `C/C(=N/Nc1nc2ccccc2n1C)c1ccccn1` and write its reported GI50.
Reply text: 202 nM

Inquiry: Return GI50 for the following molecule: `COc1cc(-c2nn(-c3cccc(NC(=O)Nc4cc(C(F)(F)F)cc(C(F)(F)F)c4)c3)cc2-c2ccncc2)ccc1Cl`
Reply text: 412 nM

Inquiry: Please report GI50 for the following molecule: O=c1ccn(C2OC(CO/N=C/c3ccc(O)c(O)c3O)C(O)C2O)c(=O)[nH]1 (centres undefined)
Reply text: 35400 nM

Inquiry: Return GI50 (reported value) for this molecule: `NC(N)=N/N=C\c1cccc(OCc2ccccc2)c1`
Reply text: 2410 nM

Inquiry: Tell me its GI50 given `Ic1ccccc1-c1ccccc1` as the entry.
Reply text: > 100000 nM

Inquiry: Report measured GI50; entry is `CC(C)[C@H](CO)Nc1nc(Nc2ccc(C(=O)NCCNS(=O)(=O)c3cccc4c(N(C)C)cccc34)c(Cl)c2)c2ncn(C(C)C)c2n1`
Reply text: 447 nM

* * *

Would you mind telling me the reported TGI of each entry?
# Test system: SK-OV-3 ovarian
# assay-name: NCI tumour cell line growth inhibition, 48 h

Inquiry: Give recorded TGI. `CN(C)c1ccc(/C=c2/c3ccccc3n3nc4ccccc4c23)cc1`
Reply text: > 100 µM

Inquiry: Read off the recorded TGI for `O=C(Nc1cc(Cl)cc(Cl)c1)c1ccc(NC2=C(Cl)C(=O)N(Cc3ccc(Cl)cc3Cl)C2=O)cc1`
Reply text: > 100 µM

Inquiry: Please report the measured TGI for `CC[C@H](Nc1nc(NCc2cnc(C)cc2C)c2ncn(C(C)C)c2n1)[C@@H](C)O`
Reply text: > 100 µM

Inquiry: Return TGI for the following compound: `O=C1C=C(Sc2ccccc2)c2nccc3c2c1nc1ccccc13`
Reply text: > 100 µM

Inquiry: Please give the documented TGI of `Nc1nc(N)c(NC(=O)CCCO)c(=O)[nH]1`
Reply text: > 100 µM

Inquiry: Identify measured TGI corresponding to CCCCc1c2c(nc3c1CCCC3O)CCCC2 (stereo not given)
Reply text: > 100 µM

Inquiry: Please report TGI for the following compound: C#CCC(Cc1cnc2nc(N)nc(N)c2n1)c1ccc(C(=O)N[C@@H](CCC(=O)O)C(=O)O)cc1 (stereo not given in full)
Reply text: > 100 µM

Inquiry: Recall and state the measured TGI for CC(=O)OCC1OC(n2c(-c3ccccc3)c(C(C)=O)c(-c3ccc(Cl)cc3)c(C#N)c2=S)C(OC(C)=O)C(OC(C)=O)C1OC(C)=O (stereo not given) .
Reply text: > 100 µM

Inquiry: Name the recorded TGI of the compound listed here: `Nc1nc(Cl)c2ncn(Cc3ccc(CCl)cc3)c2n1`
Reply text: 31.1 µM

Inquiry: Return TGI for the following compound: O=C1NC(O)C(c2c[nH]c3ccccc23)=C1c1c[nH]c2ccccc12 (stereo not given)
Reply text: > 25 µM
